Where do the numbers come from? From paper doi:10.1101/2023.02.03.527073v1.

# Target desc: CgBdf1 BD1 (CgBD1) (Nakaseomyces glabratus)
# Sequence (Q6FWV7 100-228): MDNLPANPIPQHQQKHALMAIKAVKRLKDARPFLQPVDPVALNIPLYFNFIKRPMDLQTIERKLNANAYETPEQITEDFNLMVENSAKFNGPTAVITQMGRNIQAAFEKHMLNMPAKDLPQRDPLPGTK
# Method: biochemical
Readout: IC50
Form field: result (number plus unit)

Query: Quick one: IC50 of CC(=O)N1CCc2[nH]c3ccc(C(=O)Nc4ccc(N5CCOCC5)cc4)cc3c2C1 ?
Response: 1100 nM

====

# Target desc: human Brd4 BD2 (hBrd4 BD2) (Homo sapiens, UniProt O60885)
# Method: biochemical
Readout: pIC50
The value called pIC50 is obtained by taking minus log10 of the concentration in mol/L.

Query: Param item = CC(=O)N1CCc2[nH]c3ccc(C(=O)Nc4ccc(N5CCOCC5)cc4)cc3c2C1 ; retrieve measured pIC50.
Response: 6.36

====

# Target desc: human Brd4 BD1 (hBrd4 BD1) (Homo sapiens, UniProt O60885)
# Method: HTRF competition with biotinylated H4ac4 peptide
# Format: binding
Readout: IC50 (µM)
Write the value in µM as a bare number.

Query: Which IC50 value belongs to Cn1nccc1C(=O)NCc1ccc(-c2nc(-c3cccs3)no2)s1 ?
Response: 25.9

====

# Target desc: human Brd4 BD2 (hBrd4 BD2) (Homo sapiens, UniProt O60885)
# Method: HTRF competition with biotinylated H4ac4 peptide
# Format: binding
Readout: IC50

Query: Given Cc1ccc(-c2nnc(C)c(NCc3cccs3)n2)cc1 , state its recorded IC50.
Response: > 20 µM
